Please go through the items and note down their pEC50.
System: Human immunodeficiency virus 1
Assay: Antiviral activity against HIV1 infected in human P4R5 cells assessed as reduction in viral infection preincubated with cells for 24 hrs followed by viral infection measured after 48 hrs by fluorescence based beta-galactosidase reporter gene based MAGI assay
Format: functional, organism-based
Numbers only, as −log10 of the molar value.

O=c1[nH]c2cc(-c3ccccc3)sc2c(=O)n1O; 4.96

Below are some compounds; for each one, tell me its pEC50.
1. O=c1[nH]c2scc(-c3ccc(Cl)cc3)c2c(=O)n1O
2. Cc1sc2[nH]c(=O)n(O)c(=O)c2c1C

1. 5.13
2. 5.05

Provenance of the data: ChEMBL document CHEMBL4130495
